System: HCC-2998 colon
ASSAY NOTES: NCI tumour cell line growth inhibition, 48 h
Recorded measurements of GI50, one per entry

The cases that follow already have their GI50 on record.
{"columns": ["MOLECULE", "GI50"],
 "data": [
  ["COc1cc(C(=O)Nc2cc(O)c(CC=C(C)C)c(O)c2)cc2c1O[C@]1(C)CC[C@@H](O)C(C)(C)[C@H]1C2", "3.13 µM"],
  ["Cc1cc(C)c(C2CNCc3cc4c(cc32)CNCC4c2c(C)cc(C)cc2C)c(C)c1 (stereo not given)", "1.82 µg/mL"],
  ["C[n+]1c2ccccc2nc2c(N)cc(N)cc21", "12.6 µM"]
]}

Request: Look up GI50 for this molecule: COc1ccc(Nc2ccnc(N3CCN(c4ccnc5cc(Cl)ccc45)CC3)n2)cc1
Result: 2.73 µM

Request: Likewise for COC(=O)c1cc(-c2ccc(OC)c(OC)c2)[nH]c1N/N=C/c1c(Cl)cccc1Cl ?
Result: 0.265 µM

---

Test system: LOX IMVI melanoma
ASSAY NOTES: NCI tumour cell line growth inhibition, 48 h
Recorded measurements of TGI, one per entry

The cases that follow already have their TGI on record.
{"columns": ["MOLECULE", "TGI"],
 "data": [
  ["NC1=NC(=O)C(CC(=O)Nc2ccc(Cl)cc2Cl)S1 (configuration not stated)", "> 100 µM"],
  ["COc1cc2c3c([nH]c2c(OC)c1OC)CCN(Cc1ccccc1)C3", "32.1 µM"],
  ["COc1cc2cc(Oc3ccc(NC(=O)c4ccc(Cl)c(Cl)c4)cc3)c(C)nc2cc1OC", "> 100 µM"],
  ["O=Nc1c(-c2c(O)[nH]c3ncccc23)[nH]c2ccccc12", "> 100 µM"],
  ["CC[C@@]1(O)C(=O)OCc2c1cc1n(c2=O)Cc2c-1nc1ccccc1c2/C=N\\NC(=O)C(N)CCSC (some centres not stated)", "0.0368 µM"]
]}

From here, focus on the item given below.
Request: Look up TGI for this molecule: CCc1c(C)nc2sc3c(N)ncnc3c2c1C
Result: > 25 µM

---

Recorded measurements of TGI, one per entry
System: NCI-H226 lung
ASSAY NOTES: NCI tumour cell line growth inhibition, 48 h

The cases that follow already have their TGI on record.
{"columns": ["MOLECULE", "EXPERIMENTAL RESULT"],
 "data": [
  ["N#C/C(C(=S)NCc1ccccc1)=C(/N)N1CCCC1", "> 100 µM"],
  ["COc1cccc(Oc2ccccc2NC(=O)CNC(=O)c2cccc3ccccc23)c1", "> 25 µM"],
  ["CC(C)/C(Cl)=N/OC(=O)Nc1ccc(Cl)c(Cl)c1", "32.2 µM"],
  ["Cn1c(=O)n2n(c1=O)C(C)(C13CC4CC(CC(C4)C1)C3)C13CC4CC(CC1C4)CC23 (stereo not drawn)", "> 100 µM"],
  ["O=C(O)c1cc(CCc2cc(O)ccc2O)ccc1O", "> 100 µM"],
  ["Cc1cc(=O)c2c(O)cc3c(c2o1)CC=C(COC1OC(COC2OC(CO)C(O)C(O)C2O)C(O)C(O)C1O)CO3 (stereo not drawn)", "> 100 µM"]
]}

Request: Look up TGI for this molecule: NC(N)=NCCC(O)(P(=O)(O)O)P(=O)(O)O
Result: > 100 µM

Request: Likewise for Cc1cccc(NC(=O)/C(=N\N)C(c2cnc3ccc([N+](=O)[O-])cc3n2)[N+](=O)[O-])c1C (stereo not drawn) ?
Result: > 100 µM

Request: Likewise for O=C(Cc1nc2ccccc2o1)C(=O)Nc1cccc(C(F)(F)F)c1 ?
Result: > 100 µM
